- Recorded Conditions: buffer; pH 7.4; 200.0 µM
Examples of compounds with documented solubility kinetic follow.

These solved cases illustrate the format of a correct answer.
O=c1cc(NCCc2ccccc2)c2ccccc2o1
1.1 µg/mL
CC(C)CN(CC(C)C)C(=O)Nc1ccc(F)cc1F
33.2 µg/mL
Cc1ccsc1C(=O)OCC(=O)c1cc(C)n(C)c1C
3.7 µg/mL
Cn1c(COc2ccccc2Br)nc2ccccc21
1.4 µg/mL
Cc1cc(C(=O)N(CCC#N)Cc2cccs2)no1
> 41.3 µg/mL

Data request, read-out solubility kinetic, for CCOC(=O)c1c(C)[nH]c(C(=O)OCc2ccccc2F)c1C
< 0.7 µg/mL

Data request, read-out solubility kinetic, for Cc1ccc(NC(=O)CN(C)CC(=O)Nc2ccccc2C#N)cc1
> 50.5 µg/mL

Data request, read-out solubility kinetic, for COc1ccc(-c2cc(-c3ccccc3)nc(Cl)n2)cc1OC
< 0.3 µg/mL

Data request, read-out solubility kinetic, for CC1(C)CC(=O)C(C2=NC3(CCCCCC3)Cc3ccccc32)=C(O)C1
49.8 µg/mL

Data request, read-out solubility kinetic, for CC1CN(C(=O)CCCN2C(=O)c3ccccc3C2=O)CC(C)O1 (configuration not stated)
> 49.6 µg/mL

Data request, read-out solubility kinetic, for CC(=O)c1ccc(NC(=O)C2CC2c2ccccc2)cc1 (configuration not stated)
9.4 µg/mL

Data request, read-out solubility kinetic, for COc1ccc(S(=O)(=O)NCC(=O)NCCc2ccc(OC)c(OC)c2)cc1
> 61.3 µg/mL
